Entries annotated with measured CC50
Assay: NOVARTIS: Cytotoxicity against human hepatocellular carcinoma cell line (Huh7)
Format: toxicity, cell-based, Huh-7
Conditions: Huh7 cells (hepatocellular carcinoma cell line)

[
  {
    "compound": "CC(=O)N(C1=C(N2CCOCC2)C(=O)c2ccccc2C1=O)c1ccc(Cl)c(Cl)c1",
    "measurement_type": "CC50",
    "obs_value": "12.2 µM"
  },
  {
    "compound": "CCOC(=O)C1=C(c2ccccc2)N=c2sc(=Cc3ccccc3O)c(=O)n2C1c1c(OC)ccc2ccccc12 (stereo not given)",
    "measurement_type": "CC50",
    "obs_value": "> 100 µM"
  },
  {
    "compound": "CCOC(=O)N1CCN(c2ccc(C(F)(F)F)cn2)CC1",
    "measurement_type": "CC50",
    "obs_value": "> 100 µM"
  },
  {
    "compound": "CCN1/C(=C/C(=C/c2sc3ccccc3[n+]2CC)NC)Sc2ccccc21",
    "measurement_type": "CC50",
    "obs_value": "> 10 µM"
  },
  {
    "compound": "CSCCC(C(=O)NCC(=O)O)N1C(=O)c2cc(NC(C)=O)ccc2NC(=O)[C@@H]1c1ccccc1 (stereo not given in full)",
    "measurement_type": "CC50",
    "obs_value": "> 7.76 µM"
  },
  {
    "compound": "CCC(C)NC(=O)c1nn(-c2ccc(OC)cc2)c(=O)c2ccccc12 (stereo not given)",
    "measurement_type": "CC50",
    "obs_value": "> 100 µM"
  },
  {
    "compound": "COc1ccc(-c2noc(N3CCc4ccccc4C3)n2)cc1",
    "measurement_type": "CC50",
    "obs_value": "> 10 µM"
  },
  {
    "compound": "Cc1oc2c(c1C(=O)N1CCC(C)CC1)C(=O)c1ccccc1C2=O",
    "measurement_type": "CC50",
    "obs_value": "48.3 µM"
  },
  {
    "compound": "C=C[C@H]1CN2CC[C@H]1C[C@@H]2[C@@H](OC(=O)c1ccco1)c1ccnc2ccccc12",
    "measurement_type": "CC50",
    "obs_value": "> 10 µM"
  },
  {
    "compound": "COc1ccc([C@]23Oc4cc(OC)cc(OC)c4[C@@]2(O)[C@@H](O)C(C(=O)N(C)C)[C@@H]3c2ccccc2)cc1 (stereo not given in full)",
    "measurement_type": "CC50",
    "obs_value": "> 10 µM"
  }
]

Q: Find the recorded CC50 belonging to CCOc1ccc(NC(=O)CSc2nncc(O)n2)cc1 and report it.
Result: > 100 µM

Q: Item O=C1C(Nc2ccc(Cl)cc2)=C(N2CCCCC2)C(=O)c2ccccc21 has what recorded CC50?
Result: 53.2 µM

Q: Name the recorded CC50 for COCCNCC(O)CON=C1c2ccccc2-c2ccccc21 (stereo not given) .
Result: 23.3 µM
